species on record: Mus musculus; assay: Righting ability was determined in mice before rapid rolling (unaroused); assay type: functional
readout name: Loss of righting reflex (mg/kg)
# output: bare number, implied unit mg/kg

**Q:** Quickly give me recorded Loss of righting reflex for COC(=O)NC1=NC(c2cccc(Cl)c2)CN1C (stereo not given)
**A:** 200

**Q:** Quickly give me recorded Loss of righting reflex for CC(C)OC(=O)NC1=NC(c2ccccc2Cl)CN1C (stereo not given)
**A:** 46

**Q:** Quickly give me recorded Loss of righting reflex for COC(=O)NC1=NC(c2ccccc2Cl)CN1 (stereo not given)
**A:** 200

**Q:** Quickly give me recorded Loss of righting reflex for COC(=O)NC1=NC(c2ccccc2Cl)CN1C (stereo not given)
**A:** 49

**Q:** Quickly give me recorded Loss of righting reflex for CCOC(=O)NC1=NC(c2ccccc2Cl)CN1C (stereo not given)
**A:** 30

* * *

experiment: Compound was evaluated for lethal dose in mouse in groups of ten (values in parentheses indicates 95% confidence limits); assay type: toxicity, organism-based; conditions: in vivo
Assign LD50 to each entry below.
# output: bare number, implied unit mg/kg

**Q:** Quickly give me recorded LD50 for CNC1=Nc2ccc(Cl)cc2C(c2ccccc2)=[N+]([O-])C1 [CHLORDIAZEPOXIDE]
**A:** 254

**Q:** Quickly give me recorded LD50 for CN(C)CCC=C1c2ccccc2CCc2ccccc21
**A:** 70

**Q:** Quickly give me recorded LD50 for O=C1NC(=O)C(c2ccccc2)(c2ccccc2)N1
**A:** 700

**Q:** Quickly give me recorded LD50 for CCC1(c2ccccc2)C(=O)NC(=O)NC1=O
**A:** 222

* * *

organism: Mus musculus; assay: Righting ability was determined in mice before rapid rolling (unaroused); format: functional
I would appreciate it if you labelled entries Y when Loss of righting reflex is 100 mg/kg or higher, otherwise N.

**Q:** Could you please find out whether COC(=O)NC1=NC(c2ccccc2SC)CN1C (stereo unspecified) has Loss of righting reflex that meets 100 mg/kg or exceeds it?
**A:** N

**Q:** Could you please find out whether CN(C)CCC=C1c2ccccc2COc2ccccc21 [DOXEPIN] has Loss of righting reflex that meets 100 mg/kg or exceeds it?
**A:** N

**Q:** Could you please find out whether COC(=O)NC1=NC2(CCc3ccccc32)CN1 (stereo unspecified) has Loss of righting reflex that meets 100 mg/kg or exceeds it?
**A:** Y

**Q:** Could you please find out whether CCOc1ccccc1C1CN=C(NC(=O)OC)N1 (stereo unspecified) has Loss of righting reflex that meets 100 mg/kg or exceeds it?
**A:** Y

**Q:** Could you please find out whether CNC1=Nc2ccc(Cl)cc2C(c2ccccc2)=[N+]([O-])C1 [CHLORDIAZEPOXIDE] has Loss of righting reflex that meets 100 mg/kg or exceeds it?
**A:** N

* * *

species on record: Mus musculus; assay: Inhibition of radioactive NE [3H]norepinephrine uptake into mouse heart; format: functional
Please use Criterion met for ED50 under 7 mg/kg and Criterion not met for everything else, ties included.

**Q:** Below 7 mg/kg on ED50? Entry NC1=NC(c2ccccc2)CN1 (stereo unspecified)
**A:** Criterion met

**Q:** Below 7 mg/kg on ED50? Entry CCOC(=O)NC1=NC(c2ccccc2Cl)CN1C (stereo unspecified)
**A:** Criterion not met

**Q:** Below 7 mg/kg on ED50? Entry NC1=NC(c2c(Cl)cccc2Cl)CN1 (stereo unspecified)
**A:** Criterion met

**Q:** Below 7 mg/kg on ED50? Entry CN1CC(c2ccccc2Cl)N=C1N (stereo unspecified)
**A:** Criterion not met

**Q:** Below 7 mg/kg on ED50? Entry CN(C)CCCN1c2ccccc2CCc2ccccc21
**A:** Criterion met

**Q:** Below 7 mg/kg on ED50? Entry COC(=O)NC1=NC(c2c(Cl)cccc2Cl)CN1 (stereo unspecified)
**A:** Criterion not met
